system: T1, SHP-2 N-terminal + C-terminal (N+C) SH2 domains (human, UniProt Q06124 2-219)
T1 construct: SHP-2, human, N-terminal + C-terminal SH2 domains, aa 2–219; also called SHP-2 (SH2-SH2); SHP2 N+C SH2; source: E. coli BL21(DE3)pLysS, purified (Oxford Protein Production Facility / in house; size exclusion chromatography)
T1 sequence (looked up): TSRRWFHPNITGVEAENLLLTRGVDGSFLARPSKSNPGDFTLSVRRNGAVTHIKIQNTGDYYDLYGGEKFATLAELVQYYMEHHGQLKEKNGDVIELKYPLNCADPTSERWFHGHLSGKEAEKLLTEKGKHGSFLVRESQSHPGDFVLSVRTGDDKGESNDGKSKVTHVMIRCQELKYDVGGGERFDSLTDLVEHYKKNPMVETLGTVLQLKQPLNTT
experimental.protocol: SPR; biotinylated phosphopeptides immobilised on streptavidin chip (about 25 RU single, 50 RU tandem motifs); soluble recombinant protein injected; 37°C; HBS-EP; equilibrium binding (Table 4; same-day purification not given)
experimental.conditions: both partners purified
Non-standard residues stand in square brackets, D forms with d. No end group written: not given here. *: point of attachment. Biotin = O=C1N[C@H]2[C@H](CS[C@H]2CCCCC(=O)*)N1; pY = N[C@@H](Cc1ccc(OP(=O)(O)O)cc1)C(=O)O
Measured Kd, listed per entry for reference.
Give the value; after it, write the unit.

Answered cases to consult:
binder: Biotin-EFLTI[pY]EDVKDLKTRRNHEQEQTFPGGGSTI[pY]SMIQS (CD244 (SLAMF4), human, cytoplasmic stretch with ITSM1 and ITSM2; also called tandem ITSM peptide; source: synthetic peptide (Peptide Protein Research Ltd)) [CD244 ITSM1+ITSM2 tandem phosphopeptide]
result: 2.2 µM
//
binder: Biotin-PAYTL[pY]SLIQPSRKSGSRKRNHSPSFNSTI[pY]EVIGK (CD244 (SLAMF4), human, cytoplasmic stretch with ITSM3 and ITSM4; source: synthetic peptide (Peptide Protein Research Ltd)) [CD244 ITSM3+ITSM4 tandem phosphopeptide]
result: 10 µM
//
binder: CD244 ITSM1,ITSM2 (equimolar mixture of single ITSM on chip) (other, also: equimolar mixture of two separate peptides) chain 1: Biotin-EFLTI[pY]EDVKD chain 2: Biotin-GGSTI[pY]SMIQS
result: 22 µM

[ask] I would be grateful if you could share the reported Kd for Biotin-EFLTI[pY]EDVKD (CD244 (SLAMF4), human, cytoplasmic ITSM1; also called SLAMF4 ITSM1; source: synthetic peptide (Peptide Protein Research Ltd)) [CD244 ITSM1 phosphopeptide (Biotin-EFLTIpYEDVKD)] .
[reply] 29 µM

[ask] I would be grateful if you could share the reported Kd for Biotin-TNDIT[pY]ADLNLPKGKKPAPQAAEPNNHTE[pY]ASIQT (SIRPα, human, cytoplasmic stretch with ITIM1 and ITIM2; source: synthetic peptide (Peptide Protein Research Ltd)) [SIRPα ITIM1+ITIM2 tandem phosphopeptide] .
[reply] 1 µM

Source of measurements: paper PMC3958483
